System: M14
ASSAY_EXPLANATION: cells
Type: cell-based, human
APPLIED_CONDITIONS: Homo sapiens, M14, 48 h, read-out: IC50, cellular anti-proliferative assay
Provide the recorded IC50 for the entries that follow.
Answers are plain numbers, in µM.

• O=C(O)CCCc1ccc(N(CCCl)CCCl)cc1 [Chlorambucil, reference compound] = 62.4

q: Return IC50 (reported value) for this compound: CC(C)(C)c1cnc(CSc2cnc(NC(=O)Cc3ccc(N(CCCl)CCCl)cc3)s2)o1 [CY-201]
a: 0.058

---

TESTED_SYSTEM: CDK2/cyclin E (Homo sapiens)
Construct: C-terminal 6His-tagged, recombinant full-length CDK2 (MW=34 kDa)
ASSAY_EXPLANATION: biochemical
PROPERTY: IC50 (nM)
Answers are plain numbers, in nM.

q: Fill in: IC50 on CDK2/cyclin E (Homo sapiens), entry CC(C)(C)c1cnc(CSc2cnc(NC(=O)Cc3ccc(N(CCCl)CCCl)cc3)s2)o1 [CY-201]
a: 2.7
